TARGET OR SYSTEM: Neuropeptide Y receptor type 1 (Homo sapiens) (UniProt P25929)
Sequence (P25929 whole entry, looked up): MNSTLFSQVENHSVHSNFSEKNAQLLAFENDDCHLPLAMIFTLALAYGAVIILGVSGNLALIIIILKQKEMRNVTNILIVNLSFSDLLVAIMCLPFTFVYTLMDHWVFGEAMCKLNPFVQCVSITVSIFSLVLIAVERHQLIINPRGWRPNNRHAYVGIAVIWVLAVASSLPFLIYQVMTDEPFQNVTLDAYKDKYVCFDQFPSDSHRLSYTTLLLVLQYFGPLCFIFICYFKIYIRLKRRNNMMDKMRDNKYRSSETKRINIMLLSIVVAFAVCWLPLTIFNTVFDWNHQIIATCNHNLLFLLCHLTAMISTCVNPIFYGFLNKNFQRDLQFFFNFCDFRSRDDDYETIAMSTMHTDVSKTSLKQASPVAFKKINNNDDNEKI
TEST METHOD NOTES: blockers of human neuropeptide Y Y1 receptor – cell-based, primary screen (AID 1040)
CONDITIONS: HEK293-CNG Y1 cells, membrane potential fluorescence; at 3.6 µM
About 2,000 (1%) of roughly 200,000 compounds were called active.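 Rule for the calls: active = inhibition above the campaign mean inhibition of all tested compounds plus 3 SD (cut at about 20% in these data); inactive = the rest.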 The entries come from a sample that favours actives as a whole.
# valid calls are active, inactive; nothing else

Answered cases to consult:
COMPOUND: COc1ccc(C(=O)C2CCCN(Cc3ccc(C)s3)C2)cc1OC (stereo unspecified)
LABEL CLASS: inactive

COMPOUND: N=c1ccccn1Cc1ccccc1
LABEL CLASS: inactive

COMPOUND: CCOC(=O)c1c(N)n(CCN2CCOCC2)c2nc3ccccc3nc12
LABEL CLASS: inactive

COMPOUND: CCc1nnc(NS(=O)(=O)c2ccc(N=Cc3c(O)n(-c4ccccc4)c(=O)[nH]c3=O)cc2)s1
LABEL CLASS: inactive

COMPOUND: CCOC(=O)c1c(N)n(Cc2ccccc2)c2nc3ccccc3nc12
LABEL CLASS: active

Q. Dear colleague, could you share the recorded outcome for COc1cc(Cn2c(N)c(C(=O)NCc3ccco3)c3nc4ccccc4nc32)cc(OC)c1OC when you have a moment?
A. inactive

Data origin, for the record: PubChem BioAssay AID1040
